- MEASUREMENT TARGET: transducin (Homo sapiens, UniProt P11488)
- Sequence (P11488 2-350 limits assumed): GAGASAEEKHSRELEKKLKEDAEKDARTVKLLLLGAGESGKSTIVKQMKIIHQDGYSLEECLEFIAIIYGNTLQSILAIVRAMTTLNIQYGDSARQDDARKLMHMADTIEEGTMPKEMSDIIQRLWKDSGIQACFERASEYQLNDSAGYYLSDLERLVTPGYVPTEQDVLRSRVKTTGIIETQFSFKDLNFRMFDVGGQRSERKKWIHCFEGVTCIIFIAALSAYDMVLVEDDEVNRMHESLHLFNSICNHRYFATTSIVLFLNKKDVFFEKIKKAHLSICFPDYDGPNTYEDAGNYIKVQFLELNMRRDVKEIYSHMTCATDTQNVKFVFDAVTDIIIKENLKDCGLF
- Sequence (P62873 2-340 partner limits assumed): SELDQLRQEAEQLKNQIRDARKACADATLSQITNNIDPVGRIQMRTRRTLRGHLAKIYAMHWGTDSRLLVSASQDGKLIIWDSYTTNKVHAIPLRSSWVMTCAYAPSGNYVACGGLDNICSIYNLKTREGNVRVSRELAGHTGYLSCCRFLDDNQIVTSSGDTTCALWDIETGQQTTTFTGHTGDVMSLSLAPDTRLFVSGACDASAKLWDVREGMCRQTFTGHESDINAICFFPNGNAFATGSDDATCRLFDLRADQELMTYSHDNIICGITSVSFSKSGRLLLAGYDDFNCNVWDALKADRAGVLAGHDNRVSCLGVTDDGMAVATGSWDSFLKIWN
- Sequence (P63211 2-71 partner limits assumed): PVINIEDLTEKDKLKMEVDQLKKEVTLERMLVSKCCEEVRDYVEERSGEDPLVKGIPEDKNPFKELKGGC
- TEST SUMMARY: GTPyS uptake assay: effect of BR-rhodopsin loop 3 chimeras on GDP-GTP exchange on transducin
- Type: biochemical
- EXPERIMENTAL SETUP: 10 Minutes, new culture of 3C and three new chimeras
PROPERTY MEASURED: Activation (×100%) Over Basal Exchange

Look up Activation (×100%) Over Basal Exchange for this molecule: 3D: bacteriorhodopsin chimera, loop 3 replaced by bovine rhodopsin Q225-T251; loop amino acid sequence SEQ ID NO:32 (protein) QAQITGRPEWIWLALGTALMGLGTLYFLVKGMGVSDPDAKKFYAITTLVPAIAFTMYLSMLLGYGLTMVPFGGEQNPIYWARYADWLFTTPLLLLDLALLVDADQGTILALVGADGIMIGTGLVGALTKVYSYRFVWWAISTAAMLYILYVLFFGFTQLVFTVKEAAAQQQESATTQKAEKEVTVASTFKVLRNVTVVLWSAYPVVWLIGSEGAGIVPLNIETLLFMVLDVSAKVGFGLILLRSRAIFGEAEAPEPSAGDGAAATSD
1.0 ×100%
